# Tested on: human colon carcinoma HT-29
# RUN DESCRIPTION: Proliferation assay (IC50) under aerobic and hypoxic conditions, HT-29
# Type: cell-based
# APPLIED CONDITIONS: Homo sapiens; HT-29, hypoxic (anoxia <0.001% O2), 4 h exposure
REPORTED PROPERTY: log10 IC50 (log10 of the value in nM)
The base-10 logarithm of IC50, taken with IC50 in nM, is what appears here.

Here are 5 molecules together with their reported answers.
>  <MOLECULE>
Cc1cccc2cc3cccc(C(=O)NCCN(C)CCNc4n[n+]([O-])c5ccccc5[n+]4[O-])c3nc12

>  <log10 IC50>
2.61

$$$$
>  <MOLECULE>
Cc1cccc2cc3cccc(C(=O)NCCCN(C)CCCNc4n[n+]([O-])c5ccccc5[n+]4[O-])c3nc12

>  <log10 IC50>
2.35

$$$$
>  <MOLECULE>
Cc1cccc2cc3cccc(C(=O)NCCNCCNc4n[n+]([O-])c5ccccc5[n+]4[O-])c3nc12

>  <log10 IC50>
1.54

$$$$
>  <MOLECULE>
Cl.O=C(NCCCNCCCNc1n[n+]([O-])c2ccccc2[n+]1[O-])c1cccc2nc3ccccc3nc12 [Compound 31, hydrochloride]

>  <log10 IC50>
2.55

$$$$
>  <MOLECULE>
COCCOc1ccc2c(c1)[n+]([O-])nc(NCCCN(C)CCCNC(=O)c1cccc3cc4ccccc4nc13)[n+]2[O-]

>  <log10 IC50>
2.09

$$$$

Okay, here is my list. What is log10 IC50 for each of these?
1. Cc1ccc2c(c1)[n+]([O-])c(NCCCN(C)CCCNC(=O)c1cccc3ccc(-c4ccncc4)nc13)n[n+]2[O-]
2. Cc1ccc2c(c1)[n+]([O-])nc(NCCCN(C)CCCNC(=O)c1cccc3ccc(-c4ccncc4)nc13)[n+]2[O-]

[A]
1: 2.35; 2: 2.30

[Q] Tell me the measured log10 IC50 of CN(CCCNC(=O)c1cccc2cc3ccccc3nc12)CCCNc1n[n+]([O-])c2ccccc2[n+]1[O-] , please.
[A] 1.63

* * *

# Test system: human cervical carcinoma SiHa
# RUN DESCRIPTION: Proliferation assay (IC50) under aerobic and hypoxic conditions, SiHa
# Type: cell-based
# APPLIED CONDITIONS: ratio of IC50 under aerobic and hypoxic conditions
API: label(entry) gives Satisfied if the entry's HCR is strictly smaller than 80; on equality or larger values it gives Not satisfied.

Would you please look over these solved cases?
>  <SMILES TEXT>
O=C(NCCCNCCCNc1n[n+]([O-])c2ccccc2[n+]1[O-])c1cccc2cc3ccccc3nc12

>  <SYSTEM NAME>
human cervical carcinoma SiHa

>  <GROUP>
Satisfied

$$$$
>  <SMILES TEXT>
CN(CCNC(=O)c1cccc2cc3ccccc3nc12)CCNc1n[n+]([O-])c2ccccc2[n+]1[O-]

>  <SYSTEM NAME>
human cervical carcinoma SiHa

>  <GROUP>
Not satisfied

$$$$
>  <SMILES TEXT>
Cc1ccc2c(c1)[n+]([O-])nc(NCCCN(C)CCCNC(=O)c1cccc3ccc(-c4ccncc4)nc13)[n+]2[O-]

>  <SYSTEM NAME>
human cervical carcinoma SiHa

>  <GROUP>
Not satisfied

$$$$

Shifting focus to the molecule that follows.
[Q] Could you please tell me whether HCR recorded for Cc1cccc2nc3cccc(C(=O)NCCN(C)CCNc4n[n+]([O-])c5ccccc5[n+]4[O-])c3nc12 is less than 80?
[A] Satisfied

* * *

# System: human colon carcinoma HT-29
# RUN DESCRIPTION: Proliferation assay (IC50) under aerobic and hypoxic conditions, HT-29
# Assay type: cell-based
# APPLIED CONDITIONS: Homo sapiens; HT-29, hypoxic (anoxia <0.001% O2), 4 h exposure
pIC50: −log10 of the molar value.
# binarize pIC50: threshold 7 inclusive, high side 1.0, low side 0.0

Would you please look over these solved cases?
>  <SMILES TEXT>
CN(CCCNC(=O)c1cccc2cccnc12)CCCNc1n[n+]([O-])c2ccccc2[n+]1[O-]

>  <GROUP>
0.0

$$$$
>  <SMILES TEXT>
CN(CCNC(=O)c1cccc2ccc(-c3ccncc3)nc12)CCNc1n[n+]([O-])c2ccccc2[n+]1[O-]

>  <GROUP>
0.0

$$$$
>  <SMILES TEXT>
[O-][n+]1nc(NCCCCCCNc2c3ccccc3nc3ccccc23)[n+]([O-])c2ccccc21

>  <GROUP>
1.0

$$$$
>  <SMILES TEXT>
CN(CCCNC(=O)c1cccc2nc3ccccc3nc12)CCCc1n[n+]([O-])c2ccccc2[n+]1[O-]

>  <GROUP>
1.0

$$$$

[Q] Dear colleague, could you confirm whether CN(CCNC(=O)c1cccc2cc3ccccc3nc12)CCNc1n[n+]([O-])c2ccccc2[n+]1[O-] has pIC50 at or above 7?
[A] 0.0

* * *

Please go through the items and note down their log10(IC50).
# Tested on: human cervical carcinoma SiHa
# RUN DESCRIPTION: Proliferation assay (IC50) under aerobic and hypoxic conditions, SiHa
# Type: cell-based
# APPLIED CONDITIONS: Homo sapiens, hypoxic, 4 h exposure
# Protocol: Evaluation of the Cytotoxicity of Compounds by Proliferation Assay (IC50) Under Aerobic and Hypoxic Conditions. Compounds representative of the invention were evaluated under both aerobic and hypoxic conditions in a proliferation assay (IC50), using two cell lines: human colon carcinoma HT-29, and human cervical carcinoma SiHa. […]
The base-10 logarithm of IC50, taken with IC50 in nM, is what appears here.

>  <SMILES TEXT>
Cc1ccc2c(c1)[n+]([O-])nc(NCCCN(C)CCCNC(=O)c1cccc3ccc(-c4ccncc4)nc13)[n+]2[O-]

>  <SYSTEM NAME>
human cervical carcinoma SiHa

>  <REPORTED PROPERTY>
log10(IC50)

>  <NUMBER>
1.85

$$$$
>  <SMILES TEXT>
Cc1cccc2cc3cccc(C(=O)NCCNCCNc4n[n+]([O-])c5ccccc5[n+]4[O-])c3nc12

>  <SYSTEM NAME>
human cervical carcinoma SiHa

>  <REPORTED PROPERTY>
log10(IC50)

>  <NUMBER>
1.00

$$$$

Okay, here is my list. What is log10(IC50) for each of these?
1. CN(CCNC(=O)c1cccc2cc3ccccc3nc12)CCNc1n[n+]([O-])c2ccccc2[n+]1[O-]
2. CN(CCNC(=O)c1cccc2ccc(-c3ccncc3)nc12)CCNc1n[n+]([O-])c2ccccc2[n+]1[O-]
3. Cc1cccc2nc3cccc(C(=O)NCCN(C)CCNc4n[n+]([O-])c5ccccc5[n+]4[O-])c3nc12
4. COCCOc1ccc2c(c1)[n+]([O-])nc(NCCCN(C)CCCNC(=O)c1cccc3cc4ccccc4nc13)[n+]2[O-]
5. O=C(NCCCNCCCNc1n[n+]([O-])c2ccccc2[n+]1[O-])c1cccc2cc3ccccc3nc12
6. Cc1ccc2c(c1)[n+]([O-])c(NCCCN(C)CCCNC(=O)c1cccc3ccc(-c4ccncc4)nc13)n[n+]2[O-]
7. O=C(NCCNCCNc1n[n+]([O-])c2ccccc2[n+]1[O-])c1cccc2ccc(-c3ccncc3)nc12

[A]
1. 1.88
2. 2.00
3. 1.88
4. 1.70
5. 1.49
6. 2.02
7. 2.20

* * *

# System: human colon carcinoma HT-29
# RUN DESCRIPTION: Proliferation assay (IC50) under aerobic and hypoxic conditions, HT-29
# Format: cell-based
# APPLIED CONDITIONS: Homo sapiens; HT-29, hypoxic (anoxia <0.001% O2), 4 h exposure
REPORTED PROPERTY: pIC50
One number for each entry, as −log10 of the molar value.

Here are 6 compounds together with their reported answers.
>  <SMILES TEXT>
CN(CCCNC(=O)c1cccc2ccc(-c3ccncc3)nc12)CCCNc1n[n+]([O-])c2ccccc2[n+]1[O-]

>  <pIC50>
6.95

$$$$
>  <SMILES TEXT>
CN(CCCNC(=O)c1cccc2cc3ccccc3nc12)CCCc1n[n+]([O-])c2ccccc2[n+]1[O-]

>  <pIC50>
7.68

$$$$
>  <SMILES TEXT>
Cc1ccc2c(c1)[n+]([O-])nc(NCCCN(C)CCCNC(=O)c1cccc3cc4ccccc4nc13)[n+]2[O-]

>  <pIC50>
6.89

$$$$
>  <SMILES TEXT>
O=C(NCCNCCNc1n[n+]([O-])c2ccccc2[n+]1[O-])c1cccc2ccc(-c3ccncc3)nc12

>  <pIC50>
6.31

$$$$
>  <SMILES TEXT>
Cc1cccc2nc3c(C(=O)NCCCN(C)CCCNc4n[n+]([O-])c5ccccc5[n+]4[O-])cccc3nc12

>  <pIC50>
7.74

$$$$
>  <SMILES TEXT>
Cc1ccc2c(c1)[n+]([O-])c(NCCCN(C)CCCNC(=O)c1cccc3cc4ccccc4nc13)n[n+]2[O-]

>  <pIC50>
6.65

$$$$

Okay, next one:
[Q] Tell me the measured pIC50 of Cc1cccc2nc3cccc(C(=O)NCCN(C)CCNc4n[n+]([O-])c5ccccc5[n+]4[O-])c3nc12 , please.
[A] 6.87
